# Test system: HT29 colon
# assay method text: NCI tumour cell line growth inhibition, 48 h
recorded metric: TGI

Sample answers from the record:
Cc1ccc(S(=O)(=O)NN=C2C(C)CC(C(C)(C)C)CC2C)cc1 (configuration not stated) ... 32.8 µM
Cc1ccc(C2=NN=C3C(c4ccccc4)=Nc4ccccc4N3C2)cc1 ... > 81.1 µM
COc1cc(/C=C2\N=C(c3ccccc3)N(c3ccc4c(c3)Sc3cc(N5C(=O)/C(=C/c6cc(OC)c(OC)c(OC)c6)N=C5c5ccccc5)ccc3N4)C2=O)cc(OC)c1OC ... > 100 µM
CN1C[C@@H]2CC(=O)CC[C@@H]2C[C@H]1C#N ... > 100 µM
CC1(C)CC(=O)c2c(nc3c(ccc4ccccc43)c2-c2ccc(NC(=O)CCCCCCCCC(=O)Nc3ccc(-c4c5c(nc6c4ccc4ccccc46)CC(C)(C)CC5=O)cc3)cc2)C1 ... > 100 µM
Cc1nn(C(=O)c2ccc(Cl)cc2)c2c1C(c1ccccc1)SC(N)=N2 (configuration not stated) ... > 10 µM
OCC(O)COc1ccc(F)cc1 (configuration not stated) ... > 100 µM
CC(=O)OC12c3ccccc3C(c3ccccc31)C1C(=O)N(c3ccccc3O)C(=O)C12 (configuration not stated) ... > 100 µM

List TGI for every entry below, keeping the order given.
1. O=C(CC(O)(C(F)(F)Cl)C(F)(F)Cl)CC(O)(C(F)(F)Cl)C(F)(F)Cl
2. NS(=O)(=O)c1ccc(N=Nc2c(O)[nH]c3cccc(CCc4ccncc4)c23)cc1
3. Cc1ccc(NC(=O)CC2SC(=Nc3cccc(Cl)c3C)NC2=O)cc1 (configuration not stated)
4. O=c1cc(CN2CCCCC2)[nH]c2c1ccc1nc(CN3CCCCC3)cc(=O)n12
5. CC1=CC=C2C(C)(C)CC[C@@H]3OC(=O)[C@H]1[C@]23C
6. CNC(=O)N(CCCC(NC(C)=O)C(=O)NCc1ccccc1)Cc1ccccc1 (configuration not stated)
7. Cc1ccc(NCCO)cc1
8. ClCCN(CCCl)c1ccc(OCc2ccccc2)cc1

Response:
1. > 10 µM
2. > 25 µM
3. > 100 µM
4. > 100 µM
5. > 100 µM
6. > 100 µM
7. > 100 µM
8. 49.8 µM

Could I get TGI for every one of these entries?
1. CCN(CC)CCOc1ccc(N2Cc3cc(OC)c(OC)cc3C2=O)cc1
2. COc1cc(/C=C(\C)c2ccc3c(c2)OCO3)cc(OC)c1OC

Response:
> 100 µM
> 100 µM
